Tested on: Enterococcus faecalis (EFA)
test summary: MIC, two-fold agar dilution (CLSI), clinical isolates
Format: cell-based
reported conditions: strain EFA 15-9
# if measured MIC (anti-bacterial activity) < 8 µg/mL: Condition met  # else: Condition not met

Observe how each entry below is paired with its result.
structure_string=O=CN(O)C[C@@H](CC1CCCC1)C(=O)N1CC2(CC2)C[C@H]1C(=O)Nc1ccno1 label="Condition met"
structure_string=CCCC[C@H](CN(O)C=O)C(=O)N1CC2(CC2)C[C@H]1C(=O)Nc1cnccn1 label="Condition met"
structure_string=O=CN(O)C[C@@H](CC1CCCC1)C(=O)N1CC2(CC2)C[C@H]1C(=O)Nc1cc[nH]n1 label="Condition not met"

Could you please tell me whether MIC (anti-bacterial activity) recorded for O=CN(O)C[C@@H](CC1CCCC1)C(=O)N1CC2(CC2)C[C@H]1C(=O)Nc1ccc(F)cn1 is less than 8 µg/mL?
Condition met
